Tested on: CCRIS mutagenicity, Ames/micronucleus/aberration tests
experiment-description: CCRIS mutagenicity studies
particulars: Test System: E.COLI; Strain/Indicator: WP2UVRA; Metabolic Activation: NONE; Method: PREINCUBATION
Activity calls are given as the source filed them. No rule for the calls is given here.
Classes used: TRUE (active), FALSE (inactive)

>  <compound>
O=C(O)CBr

>  <class>
FALSE

$$$$
>  <compound>
Cc1ccc(S(=O)(=O)NN)cc1

>  <class>
TRUE

$$$$
>  <compound>
CCNCCN

>  <class>
FALSE

$$$$
>  <compound>
Nc1ccccc1N

>  <class>
FALSE

$$$$
>  <compound>
O=C(Cl)c1ccc(Cl)cc1

>  <class>
FALSE

$$$$
>  <compound>
O=C1OC(=O)c2ccccc21

>  <class>
FALSE

$$$$
>  <compound>
O=c1n(CC2CO2)c(=O)n(CC2CO2)c(=O)n1CC1CO1 (configuration not stated)

>  <class>
FALSE

$$$$
>  <compound>
Cc1cnc[nH]1

>  <class>
FALSE

$$$$
>  <compound>
N#CN=C(N)N

>  <class>
FALSE

$$$$
>  <compound>
Nc1cc(Cl)ccc1[N+](=O)[O-]

>  <class>
FALSE

$$$$
>  <compound>
C=CC(=O)O

>  <class>
FALSE

$$$$
>  <compound>
CC1=CC(=C(c2ccc(N)cc2)c2ccc(N)cc2)C=CC1=N

>  <class>
FALSE

$$$$
>  <compound>
Cc1ccc(N=C=O)cc1N=C=O

>  <class>
FALSE

$$$$
>  <compound>
O

>  <class>
FALSE

$$$$
>  <compound>
[Cl][V]([Cl])[Cl]

>  <class>
FALSE

$$$$
>  <compound>
OB(O)O

>  <class>
FALSE

$$$$
>  <compound>
O=Cc1ccco1

>  <class>
FALSE

$$$$

* * *

Tested on: CCRIS mutagenicity, Ames/micronucleus/aberration tests
experiment-description: CCRIS mutagenicity studies
particulars: Test System: AMES SALMONELLA TYPHIMURIUM; Strain/Indicator: TA102; Metabolic Activation: NONE; Method: STANDARD PLATE
The source made the active and inactive calls. How the calls were made is not given here.
Classes used: active, inactive

>  <molecule>
CC1=CC(=O)c2nc(C)c3c([nH]c4ccccc43)c2C1=O

>  <class>
inactive

$$$$
>  <molecule>
CCOC(=O)c1[nH]c2ccccc2c1N=Cc1ccc(O)cc1

>  <class>
inactive

$$$$
>  <molecule>
CC(C)CCC[C@@H](C)[C@H]1CC[C@H]2[C@@H]3CC=C4CCCC[C@]4(C)[C@H]3CC[C@]12C

>  <class>
inactive

$$$$
>  <molecule>
CC(Oc1ccc(Cl)cc1Cl)C(=O)O (configuration not stated)

>  <class>
inactive

$$$$
>  <molecule>
CC(C)N(N)C(C)C

>  <class>
inactive

$$$$
>  <molecule>
CCOC(=O)Cc1c(C(=O)O)c2ccccc2n1C

>  <class>
inactive

$$$$
>  <molecule>
CCSCCSP(=O)(OC)OC

>  <class>
inactive

$$$$
>  <molecule>
COc1cccc2c1C(=O)c1c(O)c3c(c(O)c1C2=O)C[C@@](O)(C(=O)CO)CC3O[C@H]1C[C@H](N(C)C)[C@H](O)[C@H](C)O1 (some centres not stated)

>  <class>
active

$$$$
>  <molecule>
CCCCC1C(=O)N(c2ccccc2)N(c2ccc(O)cc2)C1=O (configuration not stated)

>  <class>
inactive

$$$$
>  <molecule>
OB(O)O

>  <class>
inactive

$$$$
>  <molecule>
Cc1cc(C(C)(C)C)c(O)c(C(C)(C)C)c1

>  <class>
inactive

$$$$
>  <molecule>
CCN(N)CC

>  <class>
inactive

$$$$

* * *

System: CCRIS mutagenicity, Ames/micronucleus/aberration tests
experiment-description: CCRIS mutagenicity studies
particulars: Test System: AMES SALMONELLA TYPHIMURIUM; Strain/Indicator: TA98; Metabolic Activation: MOUSE, LIVER, S-9; Method: STANDARD PLATE
The source made the active and inactive calls. How the calls were made is not given here.
Classes used: 1.0 (active), 0.0 (inactive)

>  <entry-smiles>
CC(=O)N(O)c1ccc2c(c1)Cc1ccccc1-2

>  <class>
1.0

$$$$
>  <entry-smiles>
C#C[C@]1(O)CC[C@H]2[C@@H]3CCc4cc(O)ccc4[C@H]3CC[C@@]21C

>  <class>
0.0

$$$$
>  <entry-smiles>
CC(=O)c1ccc(S(=O)(=O)NC(=O)NC2CCCCC2)cc1

>  <class>
0.0

$$$$
>  <entry-smiles>
C#C[C@]1(OC(C)=O)CC[C@H]2[C@@H]3CCC4=CC(=O)CC[C@@H]4[C@H]3CC[C@@]21C

>  <class>
0.0

$$$$
>  <entry-smiles>
CC(=O)Nc1ccc2c(c1)Cc1ccccc1-2

>  <class>
1.0

$$$$
>  <entry-smiles>
COc1cc(-c2ccc(N=C=O)c(OC)c2)ccc1N=C=O

>  <class>
1.0

$$$$

* * *

System: CCRIS mutagenicity, Ames/micronucleus/aberration tests
experiment-description: CCRIS mutagenicity studies
particulars: Test System: Ames Salmonella typhimurium; Strain/Indicator: TA98; Metabolic Activation: Rat, Liver, S-9, Aroclor 1254; Method: Preincubation
Active and inactive are the calls of the source. How the calls were made is not given here.

>  <entry-smiles>
OCc1c[nH]c2ccccc12

>  <mutagenic call>
inactive; negative

$$$$
>  <entry-smiles>
Oc1ccc(Cc2ccc(O)cc2)cc1

>  <mutagenic call>
inactive; negative

$$$$
>  <entry-smiles>
Nc1c(N=Nc2ccc(S(=O)(=O)CCOS(=O)(=O)O)cc2)c(S(=O)(=O)O)cc2cc(S(=O)(=O)O)c(N=Nc3ccc(S(=O)(=O)CCOS(=O)(=O)O)cc3)c(O)c12

>  <mutagenic call>
inactive; negative

$$$$

* * *

Test system: CCRIS mutagenicity, Ames/micronucleus/aberration tests
experiment-description: CCRIS mutagenicity studies
particulars: Test System: AMES SALMONELLA TYPHIMURIUM; Strain/Indicator: TA97; Metabolic Activation: NONE; Method: STANDARD PLATE
Activity calls are given as the source filed them. How the calls were made is not given here.
Classes used: label 1 for active, label 0 for inactive

>  <entry-smiles>
Oc1cc(Cl)c(Cl)cc1Cl

>  <class>
label 1

$$$$
>  <entry-smiles>
CC(C)Nc1nc(Cl)nc(NC(C)C)n1

>  <class>
label 0

$$$$
>  <entry-smiles>
ClC1=C(Cl)[C@]2(Cl)[C@H]3[C@H]([C@@H]4C=C[C@H]3C4)[C@@]1(Cl)C2(Cl)Cl

>  <class>
label 0

$$$$
>  <entry-smiles>
CN(N=O)C(=O)N[C@@H](C=O)[C@@H](O)[C@H](O)[C@H](O)CO

>  <class>
label 1

$$$$
>  <entry-smiles>
c1ccc2c(c1)ccc1c3ccccc3ccc21

>  <class>
label 0

$$$$
>  <entry-smiles>
CCOC(=O)c1[nH]c2ccccc2c1N=Cc1ccc(O)cc1

>  <class>
label 1

$$$$
>  <entry-smiles>
CNCCN(Cc1ccc(OC)cc1)c1ccccn1

>  <class>
label 0

$$$$
>  <entry-smiles>
Clc1ccccn1

>  <class>
label 0

$$$$
>  <entry-smiles>
CC(=O)Nc1ccc2c(c1)Cc1ccccc1-2

>  <class>
label 0

$$$$
>  <entry-smiles>
OO

>  <class>
label 1

$$$$
>  <entry-smiles>
CCOC(=O)Cc1c(C(=O)O)c2ccccc2n1C

>  <class>
label 0

$$$$
>  <entry-smiles>
c1ccc(CSSCc2ccccc2)cc1

>  <class>
label 0

$$$$
>  <entry-smiles>
Nc1ncnc2c1ncn2[C@@H]1O[C@H](CO)[C@@H](O)[C@H]1O

>  <class>
label 0

$$$$
>  <entry-smiles>
CC1=CC(=O)c2nc(C)c3c([nH]c4ccccc43)c2C1=O

>  <class>
label 1

$$$$
>  <entry-smiles>
Nc1ncnc2nc[nH]c12

>  <class>
label 0

$$$$

* * *

Test system: CCRIS mutagenicity, Ames/micronucleus/aberration tests
experiment-description: CCRIS mutagenicity studies
particulars: Test System: AMES SALMONELLA TYPHIMURIUM; Strain/Indicator: TA100; Metabolic Activation: RAT, LIVER, S-9, PHENOBARBITAL AND BETA-NAPHTHOFLAVONE; Method: PREINCUBATION
Active and inactive are the calls of the source. How the calls were made is not given here.
Classes used: yes (1) (active), no (0) (inactive)

>  <entry-smiles>
CC(=O)O[C@H]1[C@H]2O[C@H]2C2=CC(=O)[C@]3(C[C@]2(C)[C@H]1C)O[C@]3(C)C=O

>  <target-or-system>
CCRIS mutagenicity, Ames/micronucleus/aberration tests

>  <class>
no (0)

$$$$
>  <entry-smiles>
COc1ccc2c(cc3c4c(cc5c(c42)OCO5)CCN3C)c1OC

>  <target-or-system>
CCRIS mutagenicity, Ames/micronucleus/aberration tests

>  <class>
yes (1)

$$$$
>  <entry-smiles>
COc1ccc2cc3c4c(cc(OC)c(OC)c4c2c1)CCN3C

>  <target-or-system>
CCRIS mutagenicity, Ames/micronucleus/aberration tests

>  <class>
no (0)

$$$$
>  <entry-smiles>
COc1ccc(Cc2nccc3cc(OC)c(OC)cc23)cc1OC

>  <target-or-system>
CCRIS mutagenicity, Ames/micronucleus/aberration tests

>  <class>
yes (1)

$$$$
>  <entry-smiles>
O

>  <target-or-system>
CCRIS mutagenicity, Ames/micronucleus/aberration tests

>  <class>
no (0)

$$$$
>  <entry-smiles>
COc1ccc2c(c1)C(=O)c1nccc3cc4c(c-2c13)OCO4

>  <target-or-system>
CCRIS mutagenicity, Ames/micronucleus/aberration tests

>  <class>
yes (1)

$$$$
>  <entry-smiles>
COc1c(O)cc2c3c1-c1ccccc1C[C@H]3N(C)CC2

>  <target-or-system>
CCRIS mutagenicity, Ames/micronucleus/aberration tests

>  <class>
yes (1)

$$$$
>  <entry-smiles>
COc1ccc2c(c1)C(=O)c1nccc3cc(OC)c(OC)c-2c13

>  <target-or-system>
CCRIS mutagenicity, Ames/micronucleus/aberration tests

>  <class>
yes (1)

$$$$
>  <entry-smiles>
COc1ccc(Cc2cnc(N)nc2N)cc1OC

>  <target-or-system>
CCRIS mutagenicity, Ames/micronucleus/aberration tests

>  <class>
no (0)

$$$$
>  <entry-smiles>
COc1ccc2c(c1)C(=O)c1c(OC)c(OC)cc3ccnc-2c13

>  <target-or-system>
CCRIS mutagenicity, Ames/micronucleus/aberration tests

>  <class>
yes (1)

$$$$

Value source: PubChem BioAssay AID1259407
